- target_under_test: KRas G12C (Homo sapiens, UniProt P01116, G12C)
- Construct: NCI-H358 cells (ATCC CRL-5807) express KRas G12C
- Sequence (P01116 1-188 isoform P01116-2 G12C): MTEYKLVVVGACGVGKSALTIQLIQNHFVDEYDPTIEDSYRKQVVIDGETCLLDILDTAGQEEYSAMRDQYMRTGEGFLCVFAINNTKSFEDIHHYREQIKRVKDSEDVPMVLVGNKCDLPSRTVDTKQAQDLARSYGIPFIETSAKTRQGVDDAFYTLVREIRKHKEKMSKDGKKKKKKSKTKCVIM
- assay_explanation: Inhibition of KRas G12C-dependent cell growth: Phospho-ERK in NCI-H358 cells
- applied_conditions: NCI-H358 cells expressing KRas G12C; Phospho-ERK (Thr202/Tyr204) normalized to GAPDH; 3 hours compound; 4 parameter fit
pIC50: −log10 of the molar value.
pIC50 overview

# compound, pIC50
records = [
    ("CN(C)CC#CC(=O)N1CCN(c2ncnc3c(F)c(-c4cccc5ccc(F)c(Cl)c45)ncc23)CC1", 6.39),
    ("C=C(F)C(=O)N1CCN(c2nc(OC[C@@H]3C[C@@H](OC)CN3C)nc3c(F)c(-c4cncc5cccc(Cl)c45)ncc23)C[C@@H]1CC#N", 7.55),
    ("C=CC(=O)N1CCN(c2ncnc3c(F)c(-c4cc(Cl)cc5ccccc45)ncc23)CC1", 5.00),
    ("C=C(F)C(=O)N1CCN(c2nc(OC[C@@H]3CCCN3C)nc3c(C)c(-c4cccc5cccc(C)c45)ncc23)C[C@@H]1CC#N", 7.10),
    ("C=C(F)C(=O)N1CCN(c2nc(OC[C@@H]3CC4CCN3C4)nc3c(F)c(-c4cccc5ccc(F)c(Cl)c45)ncc23)C[C@@H]1CC#N (stereo partly shown)", 7.06),
    ("C=C(F)C(=O)N1CCN(c2nc(OC[C@@H]3CCCN3C)nc3c(C#N)c(-c4cccc5cccc(C)c45)ncc23)C[C@@H]1CC#N", 6.48),
    ("C=CC(=O)N1CCN(c2nc(OC[C@@H]3CCCN3C)nc3c(F)c(-c4cncc5cccc(Cl)c45)ncc23)C[C@@H]1CC#N", 8.52),
    ("C=CC(=O)N1CC[C@@H]2[C@H]1CN2c1ncnc2c(F)c(-c3cccc(Cl)c3C3CC3)ncc12", 6.26),
    ("C=CC(=O)N1CCN(c2nc(OC[C@@H]3CCCN3C)nc3c(F)c(-c4cccc5ccc(F)c(Cl)c45)ncc23)[C@@H](C)C1", 7.41),
    ("C=C(F)C(=O)N1CCN(c2nc(OC[C@@H]3CCCN3C)nc3c(O)c(-c4cccc5cccc(C)c45)ncc23)C[C@@H]1CC#N", 8.70),
    ("CO[C@@H]1C[C@@H](COc2nc(N3CCN(C(=O)/C=C/CF)[C@@H](CC#N)C3)c3cnc(-c4cncc5cccc(C)c45)c(F)c3n2)N(C)C1", 7.36),
    ("C=CC(=O)N1CCN(c2ncnc3c(F)c(-c4cccc5ccc(F)c(Cl)c45)ncc23)CC12CC2", 5.00),
    ("C=C(F)C(=O)N1CCN(c2nc(OC[C@H]3CCCN3C)nc3c(F)c(-c4cccc5cccc(Cl)c45)ncc23)C[C@@H]1CC#N", 7.57),
]

---

- target_under_test: KRas G12C (Homo sapiens, UniProt P01116, G12C)
- Construct: NCI-H358 cells (ATCC CRL-5807) express KRas G12C
- assay_explanation: Inhibition of KRas G12C-dependent cell growth: Phospho-ERK in NCI-H358 cells
- applied_conditions: NCI-H358 cells expressing KRas G12C; Phospho-ERK (Thr202/Tyr204) normalized to GAPDH; 3 hours compound; 4 parameter fit
IC50 overview
recorded_endpoint: IC50 (nM)

# molecule, recorded_endpoint, readout_number
rows = [
    ("C=CC(=O)N1CC[C@@H]2[C@H]1CN2c1ncnc2c(F)c(-c3cccc4cccc(CC)c34)ncc12", "IC50", 714),
    ("C=CC(=O)N1CC[C@@H]2[C@H]1CN2c1ncnc2c(F)c(-c3cccc4ccc(F)c(Cl)c34)ncc12", "IC50", 134),
    ("C=C(F)C(=O)N1CCN(c2nc(OC[C@@H]3C[C@@H](OC)CN3C)nc3c(F)c(-c4cccc5ccc(F)c(Cl)c45)ncc23)C[C@@H]1CC#N", "IC50", 13),
    ("C=C(F)C(=O)N1CCN(c2nc(OC[C@@H]3C[C@@H](F)CN3C(C)C)nc3c(F)c(-c4cccc5ccc(F)c(Cl)c45)ncc23)C[C@@H]1CC#N", "IC50", 31),
    ("C=C(F)C(=O)N1CCN(c2nc(OCCc3nccn3C)nc3c(F)c(-c4cccc5ccc(F)c(Cl)c45)ncc23)C[C@@H]1CC#N", "IC50", 145),
    ("C=C(F)C(=O)N1CCN(c2nc(OCC3(C)CCN3C)nc3c(F)c(-c4cccc5ccc(F)c(Cl)c45)ncc23)C[C@@H]1CC#N (stereo partly shown)", "IC50", 11),
    ("Cc1cccc2cccc(-c3ncc4c(N5CCN(C(=O)/C=C/CF)[C@@H](CC#N)C5)nc(OC[C@@H]5C[C@@H](F)CN5C)nc4c3F)c12", "IC50", 59),
    ("C=CC(=O)N1CCN(c2nc(OC[C@@H]3CCCN3C)nc3c(F)c(-c4cccc5ccc(F)c(Cl)c45)ncc23)CC1CF (stereo partly shown)", "IC50", 153),
    ("C#Cc1c(F)ccc2cccc(-c3ncc4c(N5C[C@@H]6[C@H]5CCN6C(=O)C=C)nc(N5CC(N(C)C)C5)nc4c3F)c12", "IC50", 4),
    ("C=C(F)C(=O)N1CCN(c2nc(OCC3CN(C)CC3(F)F)nc3c(F)c(-c4cccc5ccc(F)c(Cl)c45)ncc23)C[C@@H]1CC#N (single isomer, unassigned) [Example 180]", "IC50", 362),
    ("C=C(F)C(=O)N1CCN(c2nc(OC[C@@H]3CCCN3C3CCC3)nc3c(F)c(-c4cccc5ccc(F)c(Cl)c45)ncc23)C[C@@H]1CC#N", "IC50", 14),
    ("C=C(F)C(=O)N1CCN(c2nc(OCC34CCCN3C[C@H](F)C4)nc3c(F)c(-c4cccc5ccc(F)c(Cl)c45)ncc23)C[C@@H]1CC#N (stereo partly shown) [Example 145]", "IC50", 2),
    ("CO[C@@H]1C[C@@H](COc2nc(N3CCN(C(=O)/C=C/CF)[C@@H](CC#N)C3)c3cnc(-c4cccc5cccc(Cl)c45)c(F)c3n2)N(C)C1", "IC50", 30),
    ("C=C(F)C(=O)N1CCN(c2nc(OC[C@@H]3CCCN3C)nc3c(F)c(-c4cccc5ccc(F)c(Cl)c45)ncc23)C[C@@H]1CC#N", "IC50", 11),
    ("C=CC(=O)N1CCN(c2ncnc3c(F)c(-c4cc(F)cc5ccccc45)ncc23)C[C@@H]1CC#N", "IC50", 1250),
    ("C=C(F)C(=O)N1CCN(c2nc(OC[C@@H]3CCCN3C)nc3c(F)c(-c4cccc5cccc(Cl)c45)ncc23)C[C@@H]1CC#N", "IC50", 50),
]

---

- target_under_test: KRas G12C (Homo sapiens, UniProt P01116, G12C)
- Construct: NCI-H358 cells (ATCC CRL-5807) express KRas G12C
- assay_explanation: Inhibition of KRas G12C-dependent cell growth: Phospho-ERK in NCI-H358 cells
- applied_conditions: NCI-H358 cells expressing KRas G12C; Phospho-ERK (Thr202/Tyr204) normalized to GAPDH; 3 hours compound; 4 parameter fit

# compound, IC50 (nM)
rows = [
    ("C=C(F)C(=O)N1CCN(c2nc(OC[C@@H]3C[C@@H](F)CN3C)nc3c(F)c(-c4cncc5cccc(C)c45)ncc23)C[C@@H]1CC#N", 53),
    ("C=C(F)C(=O)N1CCN(c2nc(OC[C@@H]3CC(F)(F)CN3C)nc3c(F)c(-c4cncc5cccc(Cl)c45)ncc23)C[C@@H]1CC#N", 94),
    ("C=CC(=O)N1CCN(c2ncnc3c(F)c(-c4cc(O)cc5cccc(Cl)c45)ncc23)CC1", 63),
    ("C=C(F)C(=O)N1CCN(c2ncnc3c(F)c(-c4cccc5cccc(Cl)c45)ncc23)C[C@@H]1CC#N", 1540),
    ("C=C(F)C(=O)N1CCN(c2nc(OC[C@@H]3[C@H]4C[C@H]4CN3C)nc3c(F)c(-c4cccc5ccc(F)c(Cl)c45)ncc23)C[C@@H]1CC#N", 15),
    ("C=C(F)C(=O)N1CCN(c2nc(OCCCN3C[C@@H]4C[C@H]3CO4)nc3c(F)c(-c4cncc5cccc(C)c45)ncc23)C[C@@H]1CC#N", 338),
    ("Cc1cccc2cccc(-c3ncc4c(N5CCN(C(=O)/C=C/CF)[C@@H](CC#N)C5)nc(OC[C@@H]5CC(F)(F)CN5C)nc4c3F)c12", 109),
    ("C=CC(=O)N1CCN(c2nc(C(F)F)nc3c(F)c(-c4cccc5ccc(F)c(Cl)c45)ncc23)C[C@@H]1CC#N", 230),
    ("C=CC(=O)N1CCN(c2nc(C)nc3c(F)c(-c4cc(O)cc5ccccc45)ncc23)CC1", 1680),
    ("C#Cc1cccc2cc(Cl)cc(-c3ncc4c(N5C[C@@H]6[C@H]5CCN6C(=O)C=C)ncnc4c3F)c12", 2150),
    ("C=CC(=O)N1CCN(c2ncnc3c(F)c(-c4ccccc4C4CC4)ncc23)CC1", 10000),
    ("C=C(F)C(=O)N1CCN(c2nc(OC[C@@H]3CCCN3C)nc3c(F)c(-c4cccc5cccc(Cl)c45)ncc23)[C@@H](C)C1", 1190),
    ("C=CC(=O)N1CCN(c2nc(OC[C@@H]3CCCN3C)nc3c(F)c(-c4ccccc4F)ncc23)[C@@H](C)C1", 10000),
    ("C=C(F)C(=O)N1CCN(c2nc(OCC34CCCN3CCC4)nc3c(F)c(-c4cccc5ccc(F)c(Cl)c45)ncc23)C[C@@H]1CC#N", 2),
    ("C=CC(=O)N1CCN(c2nc(OC[C@@H]3CCCN3C)nc3c(F)c(-c4cccc5ccc(F)c(Cl)c45)ncc23)[C@H](C)C1", 585),
    ("C=CC(=O)N1CC[C@@H]2[C@H]1CN2c1ncnc2c(F)c(-c3cccc4sccc34)ncc12", 6610),
    ("C=C(F)C(=O)N1CCN(c2nc(OC[C@@H]3CC(F)(F)CN3C)nc3c(F)c(-c4cccc5cccc(Cl)c45)ncc23)C[C@@H]1CC#N", 105),
    ("C=C(F)C(=O)N1CCN(c2nc(OCC3CCC4(CO)CCCN34)nc3c(F)c(-c4cccc5ccc(F)c(Cl)c45)ncc23)C[C@@H]1CC#N (stereo partly drawn)", 11),
    ("C=CC(=O)N1CC[C@@H]2[C@H]1CN2c1ncnc2c(F)c(-c3cc(O)cc4cccc(Cl)c34)ncc12", 15),
    ("C=C(F)C(=O)N1CCN(c2nc(OC[C@@H]3C[C@@H](OC)CN3C)nc3c(F)c(-c4cncc5cccc(C)c45)ncc23)C[C@@H]1CC#N", 45),
    ("C#Cc1c(F)ccc2cccc(-c3ncc4c(N5C[C@@H]6[C@H]5CCN6C(=O)/C=C/C(F)F)ncnc4c3F)c12", 235),
]
